molecular target: UniProt:P04150
Sequence (P04150 whole entry): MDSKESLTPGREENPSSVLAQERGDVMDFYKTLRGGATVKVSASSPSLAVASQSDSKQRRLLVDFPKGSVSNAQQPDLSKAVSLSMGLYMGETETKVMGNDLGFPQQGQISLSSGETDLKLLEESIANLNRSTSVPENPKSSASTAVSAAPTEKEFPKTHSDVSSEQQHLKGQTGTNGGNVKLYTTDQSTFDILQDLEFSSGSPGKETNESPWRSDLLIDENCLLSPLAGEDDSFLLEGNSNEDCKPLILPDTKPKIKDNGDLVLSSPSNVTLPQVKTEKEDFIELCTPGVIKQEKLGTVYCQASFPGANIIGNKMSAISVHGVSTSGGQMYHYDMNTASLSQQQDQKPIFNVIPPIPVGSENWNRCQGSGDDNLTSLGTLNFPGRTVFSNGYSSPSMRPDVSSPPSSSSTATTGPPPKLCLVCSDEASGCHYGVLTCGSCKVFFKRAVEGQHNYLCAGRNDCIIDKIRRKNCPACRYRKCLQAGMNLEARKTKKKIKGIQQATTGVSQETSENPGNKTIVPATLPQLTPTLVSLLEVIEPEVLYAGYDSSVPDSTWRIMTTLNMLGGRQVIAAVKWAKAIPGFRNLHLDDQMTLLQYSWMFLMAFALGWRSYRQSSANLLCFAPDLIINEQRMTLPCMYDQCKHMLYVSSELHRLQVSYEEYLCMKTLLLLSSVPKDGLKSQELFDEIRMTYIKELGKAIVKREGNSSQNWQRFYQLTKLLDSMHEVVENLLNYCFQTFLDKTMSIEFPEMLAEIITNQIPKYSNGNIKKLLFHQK

compound	unit-info	IC50
Cc1c(NC(=O)c2ccc3c(c2)CC[C@@H]2C[C@@](O)(C(F)(F)F)CC[C@@]32Cc2ccccc2)ccc[n+]1[O-] [Comparator G]	nM	2.13

---

system: osteocalcin; experiment: Serum osteocalcin suppression, 28-day repeat dose mouse model; assay type: in vivo; conditions: mouse, oral gavage 28 days, serum osteocalcin
Form field: Osteocalcin Suppression (ED80 dose) (one value per entry).

cpd-smiles	result-modifier	Osteocalcin Suppression (ED80 dose) (mg/kg)
Cc1ncccc1NC(=O)c1ccc2c(c1)CC[C@@H]1C[C@@](O)(C(F)F)CC[C@@]21Cc1ccccc1	=	1.46
Cc1ncccc1NC(=O)c1ccc2c(c1)CC[C@@H]1C[C@@](O)(CCC(F)(F)F)CC[C@@]21Cc1ccccc1	=	2.84
Cc1ncccc1NC(=O)c1ccc2c(c1)C=C[C@@H]1C[C@@](O)(C(F)(F)F)CC[C@@]21Cc1ccccc1	>	20
Cc1cnc(NC(=O)c2ccc3c(c2)CC[C@@H]2C[C@@](O)(C(F)(F)F)CC[C@@]32Cc2ccccc2)c(C)n1	>	10
Cc1ncccc1NC(=O)c1ccc2c(c1)[C@H](O)C[C@@H]1C[C@@](O)(C(F)(F)F)CC[C@@]21Cc1ccccc1	>	10
Cc1ccncc1NC(=O)c1ccc2c(c1)CC[C@@H]1C[C@@](O)(C(F)(F)F)CC[C@@]21Cc1ccccc1	=	3.06
Cc1ncccc1NC(=O)c1ccc2c(c1)C(=O)C[C@@H]1C[C@@](O)(C(F)(F)F)CC[C@@]21Cc1ccccc1	=	1.71
Cc1ncc(NC(=O)c2ccc3c(c2)CC[C@@H]2C[C@@](O)(CCC(F)(F)F)CC[C@@]32Cc2ccccc2)c(C)n1	=	3.58

---

system: osteocalcin; assay: Serum osteocalcin suppression, 28-day repeat dose mouse model; type: in vivo; settings: data set 2, 28-day repeat dose model
Form field: Serum osteocalcin (OC) EAUC80 (one value per entry).

cpd-smiles	test-target	unit-info	Serum osteocalcin (OC) EAUC80
Cc1ncccc1NC(=O)c1ccc2c(c1)CC[C@@H]1C[C@@](O)(C(F)(F)F)CC[C@@]21Cc1ccccc1	osteocalcin	ng·h/mL	4150
C[C@]12C=CC(=O)C=C1CC[C@@H]1[C@@H]2[C@@H](O)C[C@@]2(C)[C@H]1CC[C@]2(O)C(=O)CO	osteocalcin	ng·h/mL	1640
